experimental.target: AMPKα2 (T172D)–α2KD (Homo sapiens, UniProt P54646, T172D)
Construct: human AMPK-α2 KD (α2KD; residues 6 to 280); made in house; host or cells: E. coli BL21(DE3)-RIL
Sequence (P54646 6-280 T172D): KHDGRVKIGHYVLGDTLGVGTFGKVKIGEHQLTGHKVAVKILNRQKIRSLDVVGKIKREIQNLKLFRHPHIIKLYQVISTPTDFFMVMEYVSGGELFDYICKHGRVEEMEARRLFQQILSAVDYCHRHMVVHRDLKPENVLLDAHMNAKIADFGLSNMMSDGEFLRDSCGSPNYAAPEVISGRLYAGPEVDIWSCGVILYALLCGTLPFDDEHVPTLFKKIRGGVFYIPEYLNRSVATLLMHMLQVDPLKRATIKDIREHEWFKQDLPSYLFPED
experiment.description: Spectral shift (Dianthus) binding assay
measurement.parameters: +3 mM DTT; read-out: dissociation constant (Kd)
observed.property: pKd
Scale: negative log10 of molar concentration, which is what pKd denotes.

Lookup: Identify measured pKd corresponding to CCc1ccccc1C(=O)Nc1n[nH]c2c(C)c(F)c(C3C(C#N)=C(C)N(C)C(C)=C3C#N)cc12 [BAY-3827]
Found: 5.05
